assay: Pharmacokinetic study in C57BL/6J mice; type: in vivo; settings: mouse, plasma; C57BL/6J female mice, intravenous bolus 5 mg/kg; read-out: Vss iv (volume of distribution)
List of Vd values.

[
  {
    "smilesInput": "C#Cc1ccc(-c2nnc(N[C@@H]3CCCN(CCO)C3)cc2C)c(O)c1",
    "unitsLabel": "L/kg",
    "Vd": 2.76
  },
  {
    "smilesInput": "C#Cc1ccc(-c2nnc(N[C@@H]3CCCN(C)C3)cc2C)c(O)c1",
    "unitsLabel": "L/kg",
    "Vd": 6.59
  },
  {
    "smilesInput": "C#Cc1ccc(-c2nnc(N[C@@H]3CCCN(C)C3)c3ccccc23)c(O)c1",
    "unitsLabel": "L/kg",
    "Vd": 3.16
  },
  {
    "smilesInput": "C#Cc1ccc(-c2nnc(N[C@@H]3CCCN(C)C3)nc2C2CC2)c(O)c1",
    "unitsLabel": "L/kg",
    "Vd": 5.14
  },
  {
    "smilesInput": "C#Cc1ccc(-c2nnc(N[C@@H]3CCCN(C)C3)c3c2CCCC3)c(O)c1",
    "unitsLabel": "L/kg",
    "Vd": 5.22
  },
  {
    "smilesInput": "CC#Cc1ccc(-c2nnc(N[C@@H]3CCCN(C)C3)cc2C)c(O)c1",
    "unitsLabel": "L/kg",
    "Vd": 2.64
  },
  {
    "smilesInput": "CC#Cc1ccc(-c2nnc(N[C@@H]3CCCN(C)C3)nc2C)c(O)c1",
    "unitsLabel": "L/kg",
    "Vd": 5.14
  }
]

---

List of Tmax values.
experiment: Pharmacokinetic study in beagles; assay type: in vivo; conditions: beagle, dog, plasma, po; male beagles, gavage 1.0 mg/kg; read-out: Tmax po (peak time of plasma concentration)

[
  {
    "molecule": "C#Cc1ccc(-c2nnc(N[C@@H]3CCCN(C)C3)nc2C)c(O)c1 [Compound 177]",
    "Tmax [h]": 1
  },
  {
    "molecule": "CC#Cc1ccc(-c2nnc(N[C@@H]3CCCN(C)C3)nc2C)c(O)c1 [Compound 195]",
    "Tmax [h]": 4
  },
  {
    "molecule": "CC#Cc1ccc(-c2nnc(N[C@@H]3CCCN(C)C3)cc2C)c(O)c1 [Compound 174]",
    "Tmax [h]": 4
  }
]

---

List of Tmax values.
test: Pharmacokinetic study in SD male rats; assay type: in vivo; conditions: rat, plasma, po, gavage 5.0 mg/kg, median, read-out: Tmax po (peak time of plasma concentration)
observable: Tmax

[
  {
    "smilesInput": "CC#Cc1ccc(-c2nnc(N[C@@H]3CCCN(C)C3)cc2C2CC2)c(O)c1",
    "observable": "Tmax",
    "measValue": "4 h"
  },
  {
    "smilesInput": "C#Cc1ccc(-c2nnc(N[C@@H]3CCCN(C)C3)cc2C)c(O)c1",
    "observable": "Tmax",
    "measValue": "1 h"
  },
  {
    "smilesInput": "C#Cc1ccc(-c2nnc(N[C@H]3C[C@@](C)(O)C3)cc2C)c(O)c1",
    "observable": "Tmax",
    "measValue": "2 h"
  },
  {
    "smilesInput": "CC#Cc1ccc(-c2nnc(N[C@@H]3CCCN(C)C3)cc2C)c(O)c1",
    "observable": "Tmax",
    "measValue": "2 h"
  },
  {
    "smilesInput": "C#Cc1ccc(-c2nnc(N[C@@H]3CCCN(C)C3)cc2C2CC2)c(O)c1",
    "observable": "Tmax",
    "measValue": "4 h"
  }
]

---

assay: Pharmacokinetic study in beagles; format: in vivo; conditions: beagle, dog, plasma, po; male beagles, gavage 1.0 mg/kg; read-out: Cmax po (peak concentration)
observable: Cmax (µg/mL)

[
  {
    "molecule": "C#Cc1ccc(-c2nnc(N[C@@H]3CCCN(C)C3)nc2C)c(O)c1 [Compound 177]",
    "unitsLabel": "µg/mL",
    "measValue": 0.293
  },
  {
    "molecule": "CC#Cc1ccc(-c2nnc(N[C@@H]3CCCN(C)C3)nc2C)c(O)c1 [Compound 195]",
    "unitsLabel": "µg/mL",
    "measValue": 0.206
  },
  {
    "molecule": "CC#Cc1ccc(-c2nnc(N[C@@H]3CCCN(C)C3)cc2C)c(O)c1 [Compound 174]",
    "unitsLabel": "µg/mL",
    "measValue": 0.105
  }
]

---

test: Pharmacokinetic study in C57BL/6J mice; assay type: in vivo; settings: mouse, plasma; C57BL/6J female mice, intravenous bolus 5 mg/kg; read-out: tz1/2 iv (terminal elimination half-life) (converted)
List of half-life values.

[
  {
    "smilesInput": "C#Cc1ccc(-c2nnc(N[C@@H]3CCCN(C)C3)c3c2CCCC3)c(O)c1",
    "half-life, h": 3.85
  },
  {
    "smilesInput": "CC#Cc1ccc(-c2nnc(N[C@@H]3CCCN(C)C3)nc2C)c(O)c1",
    "half-life, h": 3.89
  },
  {
    "smilesInput": "C#Cc1ccc(-c2nnc(N[C@@H]3CCCN(CCO)C3)cc2C)c(O)c1",
    "half-life, h": 1.5
  },
  {
    "smilesInput": "C#Cc1ccc(-c2nnc(N[C@@H]3CCCN(C)C3)nc2C2CC2)c(O)c1",
    "half-life, h": 2.01
  },
  {
    "smilesInput": "C#Cc1ccc(-c2nnc(N[C@@H]3CCCN(C)C3)c3ccccc23)c(O)c1",
    "half-life, h": 3.04
  },
  {
    "smilesInput": "CC#Cc1ccc(-c2nnc(N[C@@H]3CCCN(C)C3)cc2C)c(O)c1",
    "half-life, h": 3.95
  },
  {
    "smilesInput": "C#Cc1ccc(-c2nnc(N[C@@H]3CCCN(C)C3)cc2C)c(O)c1",
    "half-life, h": 2.97
  }
]

---

List of bioavailability values.
assay: Pharmacokinetic study in SD male rats; type: in vivo; settings: rat, plasma, iv 1.0 mg/kg / po 5.0 mg/kg, read-out: F % (absolute bioavailability)
observable: bioavailability

[
  {
    "molecule": "CC#Cc1ccc(-c2nnc(N[C@@H]3CCCN(C)C3)cc2C)c(O)c1 [Compound 174]",
    "measValue": "97%"
  },
  {
    "molecule": "C#Cc1ccc(-c2nnc(N[C@H]3C[C@@](C)(O)C3)cc2C)c(O)c1 [Compound 55]",
    "measValue": "163%"
  },
  {
    "molecule": "C#Cc1ccc(-c2nnc(N[C@@H]3CCCN(C)C3)cc2C2CC2)c(O)c1 [Compound 173]",
    "measValue": "85.6%"
  },
  {
    "molecule": "CC#Cc1ccc(-c2nnc(N[C@@H]3CCCN(C)C3)cc2C2CC2)c(O)c1 [Compound 264]",
    "measValue": "72.8%"
  },
  {
    "molecule": "C#Cc1ccc(-c2nnc(N[C@@H]3CCCN(C)C3)cc2C)c(O)c1 [Compound 54]",
    "measValue": "93.1%"
  }
]

---

List of half-life values.
assay: Pharmacokinetic study in beagles; format: in vivo; conditions: beagle, dog, plasma, po; male beagles, gavage 1.0 mg/kg; read-out: tz1/2 po (terminal elimination half-life) (converted)

[
  {
    "smilesInput": "CC#Cc1ccc(-c2nnc(N[C@@H]3CCCN(C)C3)nc2C)c(O)c1",
    "half-life": "11 h"
  },
  {
    "smilesInput": "C#Cc1ccc(-c2nnc(N[C@@H]3CCCN(C)C3)nc2C)c(O)c1",
    "half-life": "5.9 h"
  },
  {
    "smilesInput": "CC#Cc1ccc(-c2nnc(N[C@@H]3CCCN(C)C3)cc2C)c(O)c1",
    "half-life": "14.7 h"
  }
]

---

Assay: Pharmacokinetic study in C57BL/6J mice
Type: in vivo
Details: mouse, plasma; C57BL/6J female mice, intravenous bolus 5 mg/kg; read-out: Cl—obs iv (clearance rate) (converted)
Method: Experimental Example 2: Pharmacokinetic Study of Compounds in C57BL/6J Mice […] The results of the concentrations of the compounds under test were output using Analyst 1.6.3 of AB. Parameters such as mean, standard deviation, coefficient of variation was calculated by Microsoft Excel (parameters directly output by Analyst 1.6.3 needed no calculation), and PK parameters were calculated by WinNonlin Phenoix 8.2 software NCA (Tmax as the median).
Given measured clearance, output rule met if it is greater than or equal to 30 mL/min/kg and rule not met if not.

[
  {
    "compound": "C#Cc1ccc(-c2nnc(N[C@@H]3CCCN(C)C3)c3c2CCCC3)c(O)c1 [Compound 1]",
    "classAssignment": "rule met"
  },
  {
    "compound": "C#Cc1ccc(-c2nnc(N[C@@H]3CCCN(C)C3)nc2C2CC2)c(O)c1 [Compound 179]",
    "classAssignment": "rule met"
  },
  {
    "compound": "C#Cc1ccc(-c2nnc(N[C@@H]3CCCN(C)C3)c3ccccc23)c(O)c1 [Compound 100]",
    "classAssignment": "rule not met"
  },
  {
    "compound": "C#Cc1ccc(-c2nnc(N[C@@H]3CCCN(CCO)C3)cc2C)c(O)c1 [Compound 253]",
    "classAssignment": "rule not met"
  },
  {
    "compound": "CC#Cc1ccc(-c2nnc(N[C@@H]3CCCN(C)C3)nc2C)c(O)c1 [Compound 195]",
    "classAssignment": "rule not met"
  },
  {
    "compound": "CC#Cc1ccc(-c2nnc(N[C@@H]3CCCN(C)C3)cc2C)c(O)c1 [Compound 174]",
    "classAssignment": "rule not met"
  }
]

Reference for the values: patent US20250152584A1
